# Test system: MALME-3M melanoma
Possible outcomes: active, inactive

CCCCCCCCCCCC[C@@H](O)[C@H]1CC[C@H]([C@H](O)CCCC[C@H](O)CCCCC[C@@H](O)CC2=C[C@H](C)OC2=O)O1; inactive
COc1ccc(-c2cc(=O)oc3ccc(Cl)cc23)cc1F; inactive
CCOC(=O)c1ccc2c(c1)nc(-c1ccc(Cl)cc1)n2-c1cc(C(C)(C)C)[nH]n1; inactive
Nc1ccn(C2OC(CO)C(O)C2(F)F)c(=O)n1 (stereo not given); active
CCO.CCO.Oc1ccc(Nc2ncns2)cc1.Oc1ccc(Nc2ncns2)cc1.[Ti]; inactive

###

# System: COLO 205 colon
# Experimental Protocol: NCI tumour cell line growth inhibition, 48 h; in the data active means GI50 below about 0.43 µM; inactive means the rest
Labels: active, inactive

COc1cc2cc(c1Cl)N(C)C(=O)C[C@H](OC(=O)[C@H](C)N(C)C(=O)CCS)C[C@]1(C)O[C@H]1[C@H](C)[C@@H]1C[C@@](O)(NC(=O)O1)[C@H](OC)/C=C/C=C(\C)C2; active
Cc1ccc(C(=Nc2ccccc2)N=P(c2ccccc2)(c2ccccc2)c2ccccc2)cc1; inactive
CS(=O)(=O)Nc1ccc(Nc2c3ccccc3nc3cc([N+](=O)[O-])ccc23)cc1; inactive
CC12OC(CC(O)C1O)n1c3ccccc3c3c4c(c5c6ccccc6n2c5c31)C(=O)N(CCN1CCCC1)C4=O (centres undefined); active
COC1C(O)CC(OC2CC(OC3CC(O[C@@H]4C(=O)c5c(cc6cc(OC7CC(OC8CC(O)C(O)C(C)O8)C(O)C(C)O7)c(C)c(O)c6c5O)CC4[C@H](OC)C(=O)C(C)=O)OC(C)C3O)OC(C)C2O)OC1C (some centres undefined); active
O=C1Nc2ccccc2/C1=C/C(=O)c1ccc(N2CCCC2)cc1; inactive
Cc1nc2ccc(Nc3nc(Cl)nc(Nc4ccc(F)cc4)n3)cc2n1Cc1ccccc1; inactive
CC(C)Cc1ccc(C(C)C(=O)NCc2ccc(Cn3c(=O)sn(CCCCl)c3=O)cc2)cc1 (centres undefined); inactive
COc1cccc(C(=O)c2sc(Nc3ccc(N4CCN(C(C)C)CC4)cc3)nc2N)c1; inactive

###

# Tested on: DMS 114 small cell lung
# Experimental Protocol: NCI tumour cell line growth inhibition, 48 h
Measured Quantity: TGI

COc1ccc(N2C(=O)/C(=C/c3ccc(N(CCC#N)CCC#N)cc3C)N=C2/C=C\c2ccccc2)cc1; > 100 µM
OC[C@@H]1CC#C/C=C\C#CC[C@@H]1CO; > 100 µM
CN[C@H](C)[C@@H](OC)c1ccccc1; > 100 µM
COC(=O)C1CC(C(=O)OC)c2nc3cc([N+](=O)[O-])ccc3nc21 (stereo not given); > 100 µM
CCOc1ccc(Nc2nc(C)c(C(=O)/C=C/c3ccc(Cl)cc3Cl)s2)cc1; 56.5 µM
CC12CCC(=O)N1c1cnccc1N2 (stereo not given); > 100 µM
O=C(Nc1ccc(F)cc1)C(=O)C(C(=O)c1ccccc1F)C1OC(=O)c2ccccc21 (stereo not given); > 100 µM
COc1ccc(C(=O)c2c(C(C(=O)c3ccc(OC)cc3)C(=O)c3ccc(OC)cc3)n(C(=O)c3ccc(OC)cc3)c3ccccc23)cc1; > 100 µM
CCCCCCCCCCCCCCCCCC(=O)NCC(COP(=O)([O-])OCC[N+](C)(C)C)OC (stereo not given); 22.7 µM
CN(C)c1ccc(C(C#N)NNC(=O)Cc2ccccc2)cc1 (stereo not given); > 100 µM

###

# System: SR leukemia
# Experimental Protocol: NCI tumour cell line growth inhibition, 48 h
Measured Quantity: TGI

NC(=O)c1ncn2c1CNC(=O)C2; > 100 µM
O=C(Nn1cc(F)c(=O)[nH]c1=O)C12CC3CC(CC(C3)C1)C2; 26.8 µM
O=C(CNC(=O)c1ccccc1)Oc1c(Cl)c(Cl)c(Cl)c(Cl)c1Cl; > 100 µM
CC(=O)NNc1nc(C)c(C(=O)NNC(=O)C(=O)Nc2c(C)cccc2C(C)C)s1; > 100 µM
CN(C)c1ccc(/C=C(\C#N)c2nc(-c3cc4ccccc4oc3=O)cs2)cc1; > 50 µM
C[C@@H](c1ccccc1)N1CN(C(=O)OCc2ccccc2)C(CO)C1=O (some centres not stated); > 100 µM
O=C(c1cc(Cl)ccc1Cl)N1CCN(c2ccc(Cl)c(Cl)c2)CC1; > 100 µM
COc1oc(C(=O)NC2CCCCC2)c(-c2ccc(Cl)cc2)c1S(=O)(=O)c1ccccc1; > 25.3 µM
Cc1ccc(S(=O)(=O)CC(=O)CC(=O)C(=O)Nc2cccc(C(F)(F)F)c2)cc1; > 100 µM
COc1ccc(-c2nn(C(=O)NCCN(C)C)cc2-c2ccncc2)cc1Cl; > 100 µM
C[O+]=c1cccc2ssnc1-2; 64.8 µM
Cc1cccc2c1CC1(Cc3ccccc3C1=O)C2=O (configuration not stated); > 100 µM
COc1cc(C(=O)N2CCN(c3ccccn3)CC2)c(N)cc1OCc1ccccc1; > 100 µM
CC(C)CC(NC(=O)C(CSc1ccc([N+](=O)[O-])cc1)Cc1ccccc1)C(=O)Nc1ccccc1 (configuration not stated); > 100 µM
Cc1ccc(S(=O)(=O)NNC(=O)Nc2ccc(Cl)cc2)cc1; > 100 µM
Nc1ncc(-c2ccc3ncnc(N4CCc5ccc(Cl)cc54)c3c2)cn1; 18.1 µM
Cc1cc2c(cc1C)[n+](=O)c(C(=O)C(C)(C)C)c(C(F)(F)F)n2[O-]; 33.2 µM

###

# Test system: CCRF-CEM leukemia
Labels: y = active, n = inactive

Nc1ncc(-c2ccc3ncnc(N4CCc5ccc(Cl)cc54)c3c2)cn1; n
CCOC(=O)c1ccc2c(c1)nc(-c1ccc(Cl)cc1)n2-c1cc(C(C)(C)C)[nH]n1; n
CS(=O)(=O)Nc1ccc(Nc2c3ccccc3nc3cc([N+](=O)[O-])ccc23)cc1; y
O=C(CI)OCC(COC(=O)CI)OC(=O)CI; n

###

# Test system: MALME-3M melanoma
# Experimental Protocol: NCI tumour cell line growth inhibition, 48 h
Measured Quantity: TGI

CN(C)CCCNC(=O)c1c(-c2cccnc2)cnc2ccccc12; > 100 µM
Nc1nc(N)c(-c2cccc(C(F)(F)F)c2)c(Cc2cccc(C(F)(F)F)c2)n1; 25.7 µM
CCCCCNC(=O)c1cc2cc(CCl)ccc2oc1=O; 7.5 µM
S=C(S)N1CCOCC1; > 64.2 µM
Cc1ccc(S(=O)(=O)CC(=O)CC(=O)C(=O)Nc2cccc(C(F)(F)F)c2)cc1; > 100 µM
O=[N+]([O-])C(=C1NCCN1)C(Cl)=C(Cl)Cl; > 100 µM
COc1ccc(C(=O)/C=C/c2c(OC)cc(OC)cc2OC)c(OC)c1; > 100 µM
S=c1ncc2n[nH]nc2[nH]1; > 100 µM
C[n+]1[se]c2ccccc2c1Cl; > 56.9 µM
COc1cc2c3c(n(CCCn4ccnc4)c(=O)c2cc1OC)-c1cc2c(cc1C3=O)OCO2; > 31.5 µM
[N-]=[N+]=NC1=C(C(=O)c2ccccc2)C(=O)c2cccc3cccc1c23; > 100 µM

###

# Tested on: SK-MEL-28 melanoma
Classes used: 1 (yes) (active), 0 (no) (inactive)

COc1ccc(C(=O)/C=C/c2c(OC)cc(OC)cc2OC)c(OC)c1; 0 (no)
C/C(=N\NC(=O)c1ccc(C(C)(C)C)cc1)c1ccc(O)cc1O; 0 (no)
OCCCc1n(Cc2ccc3ccccc3c2)c2ccccc2[n+]1Cc1ccc2ccccc2c1; 0 (no)
CCOC(=O)C1=C(C)N=C2SC=C(c3ccccc3)N2[C@H]1c1cn[nH]c1-c1ccc(Cl)cc1; 0 (no)
O=C1c2ccccc2C(=O)c2c(Nc3ccc(CCO)cc3)ccc(O)c21; 0 (no)
Cc1ccc(C(=Nc2ccccc2)N=P(c2ccccc2)(c2ccccc2)c2ccccc2)cc1; 0 (no)
COc1ccc([As]=[As]c2ccc(OC)c(NCS(=O)(=O)O)c2)cc1NCS(=O)(=O)O (stereo not drawn); 0 (no)
COC1C(O)CC(OC2CC(OC3CC(O[C@@H]4C(=O)c5c(cc6cc(OC7CC(OC8CC(O)C(O)C(C)O8)C(O)C(C)O7)c(C)c(O)c6c5O)CC4[C@H](OC)C(=O)C(C)=O)OC(C)C3O)OC(C)C2O)OC1C (stereo partly drawn); 1 (yes)
CC(C)Cc1ccc(C(C)C(=O)NCc2ccc(Cn3c(=O)sn(CCCCl)c3=O)cc2)cc1 (stereo not drawn); 0 (no)
CC(=O)O[C@H]1CC[C@]2(C)[C@H]3CC=C4[C@@H]5CC(C)(C)CC[C@]5(C(=O)NCCNCCNCCN)CC[C@@]4(C)[C@]3(C)CC[C@H]2C1(C)C; 0 (no)
CCN(Cc1cccnc1)c1ccc(CO)c(Cl)c1; 0 (no)
COc1ccc(-c2nn(C(=O)NCCN(C)C)cc2-c2ccncc2)cc1Cl; 0 (no)
CCOC(=O)c1ccc2c(c1)nc(-c1ccc(Cl)cc1)n2-c1cc(C(C)(C)C)[nH]n1; 0 (no)
